This collection of values is drawn from patent US10689377B2.

# Study Target: KRas G12C (Homo sapiens, UniProt P01116, G12C)
# Sequence (P01116 1-188 isoform P01116-2 G12C): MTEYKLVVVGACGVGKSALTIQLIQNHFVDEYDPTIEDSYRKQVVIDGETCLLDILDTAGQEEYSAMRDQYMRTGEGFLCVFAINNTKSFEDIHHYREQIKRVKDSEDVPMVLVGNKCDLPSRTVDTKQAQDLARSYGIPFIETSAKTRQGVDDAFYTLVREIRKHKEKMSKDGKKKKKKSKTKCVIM
# Protocol Description: Cellular inhibition of KRas G12C measured by Phospho-ERK in NCI-H358 cells
# Format: cell-based
# Conditions Used: pERK(Thr202/Tyr204) normalized with GAPDH, NCI-H358 cells, 3 hours; read-out: IC50
Property: IC50

Recorded IC50 (molecule C=C(F)C(=O)N1CCN(c2nc(OC[C@@H]3CCCN3C)nc3c2CCN(c2c(C)ncc4ccccc24)C3)C[C@@H]1CC#N ): > 1000 nM

Please fill in: IC50 reported for C=CC(=O)N1CCN(c2nc(OC(C)CCN(C)C)nc3c2CCN(c2cc(O)cc4ccccc24)C3)CC1 (stereo not drawn) = 0.1 to 1000 nM

Memo: C=CC(=O)N1CCN(c2nc(N3CCC(N(C)C)C3)nc3c2CCN(c2cc(O)cc4ccccc24)C3)CC1 (stereo not drawn) , reported IC50: > 1000 nM

---

# Study Target: KRas G12C (Homo sapiens, UniProt P01116, G12C)
# Protocol Description: Cellular inhibition of KRas G12C measured by Phospho-ERK in NCI-H358 cells
# Type: cell-based
# Conditions Used: pERK(Thr202/Tyr204) normalized with GAPDH, NCI-H358 cells, 3 hours; read-out: IC50
Property: IC50

Record C=CC(=O)N1CCN(c2nc(OC[C@@H]3CCCN3CCOC)nc3c2CCN(c2cccc4ccccc24)C3)CC1CC#N (stereo partly shown) [Example 380] ; system KRas G12C (Homo sapiens, UniProt P01116, G12C); IC50 = 0.1 to 1000 nM

Reported IC50 (KRas G12C (Homo sapiens, UniProt P01116, G12C)) for entry C=CC(=O)N1CC2(C1)CN(c1nc(OCCCN(C)C)nc3c1CCN(c1cc(O)cc4ccccc14)C3)C2 is > 1000 nM

Reported KRas G12C (Homo sapiens, UniProt P01116, G12C) IC50 for item C=CC(=O)N1CCN(c2nc(OC(C)CCN3CCOCC3)nc3c2CCN(c2cc(O)cc4ccccc24)C3)CC1 (stereo not shown) was > 1000 nM

Lab entry: KRas G12C (Homo sapiens, UniProt P01116, G12C) assay, compound C=CC(=O)N1CCN(c2nc(OC[C@@H]3CCCN3C)nc3c2CCN(c2c(C)ccc4cn[nH]c24)C3)CC1CC#N (stereo partly shown) , IC50 = 0.1 to 1000 nM

Form: item C=C(F)C(=O)N1CCN(c2nc(OC[C@@H]3CCN(C)C3)nc3c2CCN(c2cccc4cccc(C)c24)C3)C[C@@H]1CC#N ; test system KRas G12C (Homo sapiens, UniProt P01116, G12C); IC50: 0.1 to 1000 nM

Lab note: compound C=CC(=O)N1CCN(c2nc(OC[C@@H]3CCCN3C)nc3c2CCN(c2ccnc4ccccc24)C3)CC1CC#N (stereo partly shown) [Example 295] tested on KRas G12C (Homo sapiens, UniProt P01116, G12C); recorded IC50 was > 1000 nM

Assay KRas G12C (Homo sapiens, UniProt P01116, G12C), sample C=CC(=O)N1CCN(c2nc(OCC3CN(C)CCO3)nc3c2CCN(c2cc(O)cc4ccccc24)C3)CC1 (stereo not shown) , IC50 read: 0.1 to 1000 nM

Value sought: IC50, system KRas G12C (Homo sapiens, UniProt P01116, G12C), item C=C(F)C(=O)N1CCN(c2nc(OCC3CCCC3)nc3c2CCN(c2cccc4cccc(C)c24)C3)C[C@@H]1CC#N . Result: > 1000 nM

Reported KRas G12C (Homo sapiens, UniProt P01116, G12C) IC50 for item C=CC(=O)N1CCN(c2nc(OCCCN3CCCCC3)nc3c2CCN(c2c(C)ccc4[nH]ncc24)C3)CC1 was > 1000 nM

Form field IC50 for item C=CC(=O)N1CCN(c2nc(NC[C@@H]3CCCN3C)nc3c2CCN(c2cccc4ccccc24)C3)C[C@@H]1CC#N on KRas G12C (Homo sapiens, UniProt P01116, G12C): > 1000 nM

Tested on KRas G12C (Homo sapiens, UniProt P01116, G12C): C=C(F)C(=O)N1CCN(c2nc(OC[C@@H]3CCCN3C)nc3c2CCN(c2cccc4cccc(CC)c24)C3)C[C@@H]1CC#N . Observed IC50: 0.1 to 1000 nM

I looked up C=CC(=O)N1CCN(c2nc(OC[C@@H]3CCCN3C)nc3c2CCN(c2cccc4ccccc24)C3)CC1 and its IC50 for KRas G12C (Homo sapiens, UniProt P01116, G12C) was > 1000 nM

So the reported IC50 for C=CC(=O)N1CCN(c2nc(OC[C@@H]3CCCN3C)nc3c2CCN(c2c(O)cccc2F)C3)[C@@H](C)C1 , on KRas G12C (Homo sapiens, UniProt P01116, G12C), turned out to be > 1000 nM

Lab entry: KRas G12C (Homo sapiens, UniProt P01116, G12C) assay, compound Cc1cccc2cccc(N3CCc4c(nc(OC[C@@H]5CCCN5C)nc4N4CCN(C(=O)/C=C/c5cnn(C)c5)[C@@H](CC#N)C4)C3)c12 , IC50 = > 1000 nM

Measured IC50 (KRas G12C (Homo sapiens, UniProt P01116, G12C)), entry C=CC(=O)N1CCN(c2nc(OCCCN3CCOCC3)nc3c2CCN(c2cccc4cccc(C)c24)C3)C[C@@H]1CC#N : 0.1 to 1000 nM

// assay KRas G12C (Homo sapiens, UniProt P01116, G12C), entry C=CC(=O)N1CCN(c2nc(OC[C@@H]3CCCN3C)nc3c2CCN(c2cccc4c(F)cccc24)C3)CC1CC#N (stereo partly shown) [Example 254] , IC50 value = 0.1 to 1000 nM

Entry C=C(F)C(=O)N1CCN(c2nc(OC[C@@H]3CC(F)(F)CN3C)nc3c2CCN(c2c(C)c(C)cc4[nH]ncc24)C3)C[C@@H]1CC#N ; assay system KRas G12C (Homo sapiens, UniProt P01116, G12C); IC50 recorded at 0.1 to 1000 nM

C=CC(=O)N1CCN(c2nc(OCCCN3C[C@@H]4C[C@H]3CO4)nc3c2CCN(c2cccc4ccccc24)C3)CC1CC#N (stereo partly shown) tested on KRas G12C (Homo sapiens, UniProt P01116, G12C) gave IC50: 0.1 to 1000 nM

Log: KRas G12C (Homo sapiens, UniProt P01116, G12C), compound C=CC(=O)N1CCN(c2nc(OC[C@@H]3C[C@@H](O)CN3C)nc3c2CCN(c2cccc4ccccc24)C3)CC1CC#N (stereo partly shown) , IC50 = 0.1 to 1000 nM

---

# Study Target: KRas G12C (Homo sapiens, UniProt P01116, G12C)
# Protocol Description: Cellular inhibition of KRas G12C measured by Phospho-ERK in NCI-H358 cells
# Format: cell-based
# Conditions Used: pERK(Thr202/Tyr204) normalized with GAPDH, NCI-H358 cells, 3 hours; read-out: IC50
Property: IC50

The recorded IC50 for entry C=CC(=O)N1CCN(c2nc(OCCCN3CCOCC3)nc3c2CCN(c2c(C)ccc4[nH]ccc24)C3)CC1 equals > 1 µM

For record C=CC(=O)N1CCN(c2nc(OCC(O)CN3CCOCC3)nc3c2CCN(c2cc(O)cc4ccccc24)C3)CC1 (centres unmarked) the listed IC50 is > 1 µM

The measured IC50 associated with C=CC(=O)N1CCN(c2nc(OCCN(CC)CC)nc3c2CCN(c2c(C)ccc4[nH]ncc24)C3)CC1 reads > 1 µM

Looking up Cc1cccc2cccc(N3CCc4c(nc(OC[C@@H]5CCCN5C)nc4N4CCN(C(=O)C#CCO)[C@@H](CC#N)C4)C3)c12 , I see its IC50 listed as 0.0001 to 1 µM

Lab book: IC50 of C=CC(=O)N1CCN(c2nc(OC[C@@H]3CCCN3C)nc3c2CCN(c2c(C)c(C)cc4[nH]ccc24)C3)C[C@@H]1CC#N noted as 0.0001 to 1 µM

Sample C=C(F)C(=O)N1CCN(c2nc(OC[C@@H]3CCCN3C)nc3c2CCN(c2cncc4cc(F)ccc24)C3)C[C@@H]1CC#N ; IC50 observed: > 1 µM

The compound listed as C=CC(=O)N1CCN(c2nc(OC[C@@H]3CCCN3C)nc3c2CCN(c2ncccc2C(F)(F)F)C3)CC1CC#N (some centres unmarked) [Example 373] has a reported IC50 of > 1 µM

Lab note: C=CC(=O)N1CCN(c2nc(OCCN(C)C)nc3c2CCN(c2cc(O)cc4ccccc24)C3)C(CCO)C1 (centres unmarked) gave IC50 of > 1 µM

In plain terms, Cc1cccc2cccc(N3CCc4c(nc(OC[C@H]5CCCN5C)nc4N4CCN(C(=O)/C=C/CF)[C@@H](CC#N)C4)C3)c12 [Example 579] has a documented IC50 of 0.0001 to 1 µM

Form field IC50, entry C=CC(=O)N1CCN(c2nc(OCCO)nc3c2CCN(c2cc(O)cc4ccccc24)C3)CC1 : > 1 µM

The compound C=CC(=O)N1CCN(c2nc(OCCN3CCC[C@H](OC)C3)nc3c2CCN(c2cc(O)cc4ccccc24)C3)CC1 showed IC50 equal to > 1 µM
